Tested On: FLT1 (human)
Experiment Summary: KINOMEscan competition binding
Stated Conditions: compound 10.0 µM
Quick rule for you: kinase still bound, per cent of control under 0.6% gets fulfilled, anything else gets not fulfilled.

- Smiles: "C=CC(=O)Nc1ccc(CN(C(=O)Nc2c(Cl)c(OC)cc(OC)c2Cl)c2cc(Nc3ccc(N4CCN(C)CC4)cc3)ncn2)cc1"
  Category Label: "fulfilled"

**Query** Given the entry "NC(=O)Nc1cc(-c2cccc(F)c2)sc1C(=O)N[C@@H]1CCCNC1" , would its reported kinase still bound, per cent of control be below 0.6%?
**Result** fulfilled

**Query** Threshold test, kinase still bound, per cent of control < 0.6%: "CCN(CC)CCCCNc1ncc2c(n1)N(C)C(=O)N(c1c(Cl)c(OC)cc(OC)c1Cl)C2"
**Result** not fulfilled

**Query** Field: below-cutoff. Rule: recorded kinase still bound, per cent of control strictly less than 0.6%. Subject: "O=c1cc(N2CCOCC2)oc2c(-c3cccc4c3sc3ccccc34)cccc12"
**Result** not fulfilled

**Query** In plain terms, does "CCN1CCN(C(=O)Cc2ccc(Nc3ncc(F)c(Nc4ccc(C(=O)Nc5ccccc5Cl)cc4)n3)cc2)CC1" come in under 0.6% for kinase still bound, per cent of control?
**Result** not fulfilled

**Query** Here's an entry: "COCC(=O)NC/C=C/c1ccc2ncnc(Nc3ccc(Oc4ccc(C)nc4)c(C)c3)c2c1" . Is its kinase still bound, per cent of control below 0.6%?
**Result** not fulfilled

**Query** Given "CN(C)C/C=C/C(=O)Nc1ccc(C(=O)Nc2cccc(Nc3nccc(-c4cccnc4)n3)c2)cc1" , is recorded kinase still bound, per cent of control strictly lower than 0.6%?
**Result** not fulfilled

---

Tested On: SRPK1 (human) (UniProt Q96SB4)
Sequence (Q96SB4 whole entry, looked up): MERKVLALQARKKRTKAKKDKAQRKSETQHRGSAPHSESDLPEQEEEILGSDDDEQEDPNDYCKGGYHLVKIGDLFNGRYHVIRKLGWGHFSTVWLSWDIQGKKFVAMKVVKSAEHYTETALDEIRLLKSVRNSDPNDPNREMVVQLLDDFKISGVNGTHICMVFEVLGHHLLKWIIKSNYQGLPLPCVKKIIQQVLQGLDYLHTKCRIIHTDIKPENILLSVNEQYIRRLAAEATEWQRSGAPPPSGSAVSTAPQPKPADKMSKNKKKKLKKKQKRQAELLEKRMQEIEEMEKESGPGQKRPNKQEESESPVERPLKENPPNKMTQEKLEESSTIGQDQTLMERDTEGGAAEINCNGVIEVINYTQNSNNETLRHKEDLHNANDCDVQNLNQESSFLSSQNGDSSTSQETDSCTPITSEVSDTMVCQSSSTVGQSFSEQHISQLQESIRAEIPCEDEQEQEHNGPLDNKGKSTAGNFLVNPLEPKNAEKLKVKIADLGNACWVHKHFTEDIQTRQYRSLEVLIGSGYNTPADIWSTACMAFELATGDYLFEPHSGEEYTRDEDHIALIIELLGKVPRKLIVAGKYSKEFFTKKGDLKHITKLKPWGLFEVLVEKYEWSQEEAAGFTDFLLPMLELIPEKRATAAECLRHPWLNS
Experiment Summary: KINOMEscan competition binding
Stated Conditions: compound 10.0 µM
Criterion: kinase still bound, per cent of control strictly less than 80%. Met: T. Not met: F.

- Smiles: "Cc1n[nH]c2ccc(-c3cncc(OC[C@@H](N)Cc4c[nH]c5ccccc45)c3)cc12"
  Category Label: "T"
- Smiles: "COc1cc2ncnc(-n3nc(-c4ccccn4)nc3N)c2cc1OC"
  Category Label: "F"
- Smiles: "CS(=O)(=O)N1CCN(Cc2cc3nc(-c4cccc5[nH]ncc45)nc(N4CCOCC4)c3s2)CC1"
  Category Label: "F"
- Smiles: "CN(C)C/C=C/C(=O)Nc1ccc(C(=O)Nc2cccc(Nc3nccc(-c4cccnc4)n3)c2)cc1"
  Category Label: "T"
- Smiles: "C=CC(=O)Nc1cc(-n2c(=O)ccc3cnc4ccc(-c5cn[nH]c5)cc4c32)ccc1C"
  Category Label: "T"

**Query** Report whether reported kinase still bound, per cent of control is lower than 80% (strictly) for "N#CCNC(=O)c1ccc(-c2ccnc(Nc3ccc(N4CCOCC4)cc3)n2)cc1"
**Result** T

**Query** Find out if reported kinase still bound, per cent of control for "CCN(CC)CCCCNc1ncc2cc(-c3cc(OC)cc(OC)c3)c(NC(=O)NC(C)(C)C)nc2n1" is less than 80%
**Result** F

**Query** hey, is kinase still bound, per cent of control for "COc1cc(C(=O)N2CCC(N3CCN(C)CC3)CC2)ccc1Nc1ncc2c(n1)N(C)c1ccccc1C(=O)N2C" lower than 80% or not?
**Result** F

---

Item-by-item account of kinase still bound, per cent of control
Tested On: STK10 (human) (UniProt O94804)
Sequence (O94804 whole entry, looked up): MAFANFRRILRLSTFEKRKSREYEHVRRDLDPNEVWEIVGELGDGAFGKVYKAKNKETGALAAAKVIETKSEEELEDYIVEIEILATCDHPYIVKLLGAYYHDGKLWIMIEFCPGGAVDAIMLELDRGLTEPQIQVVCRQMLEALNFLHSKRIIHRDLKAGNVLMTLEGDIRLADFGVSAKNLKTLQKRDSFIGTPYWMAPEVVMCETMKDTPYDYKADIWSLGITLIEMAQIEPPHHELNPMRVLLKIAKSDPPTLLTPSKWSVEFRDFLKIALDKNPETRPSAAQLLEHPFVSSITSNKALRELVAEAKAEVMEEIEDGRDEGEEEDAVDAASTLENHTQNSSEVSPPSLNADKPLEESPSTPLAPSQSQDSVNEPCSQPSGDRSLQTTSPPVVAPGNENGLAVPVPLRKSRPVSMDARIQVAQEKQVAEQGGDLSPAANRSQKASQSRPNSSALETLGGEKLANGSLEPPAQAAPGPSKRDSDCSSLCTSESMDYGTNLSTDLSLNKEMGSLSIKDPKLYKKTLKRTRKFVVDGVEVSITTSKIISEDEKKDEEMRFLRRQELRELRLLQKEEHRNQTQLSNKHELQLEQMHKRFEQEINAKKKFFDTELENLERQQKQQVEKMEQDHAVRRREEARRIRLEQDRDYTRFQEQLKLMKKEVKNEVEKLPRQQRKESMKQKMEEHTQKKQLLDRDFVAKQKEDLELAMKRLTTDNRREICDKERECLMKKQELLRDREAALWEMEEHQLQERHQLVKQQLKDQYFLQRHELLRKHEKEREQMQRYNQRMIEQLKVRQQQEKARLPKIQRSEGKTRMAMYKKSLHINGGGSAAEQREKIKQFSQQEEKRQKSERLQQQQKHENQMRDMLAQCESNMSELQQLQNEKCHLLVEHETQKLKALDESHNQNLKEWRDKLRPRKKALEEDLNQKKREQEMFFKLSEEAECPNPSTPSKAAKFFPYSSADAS
Experiment Summary: KINOMEscan competition binding
Stated Conditions: compound 10.0 µM
Express the result in % but write the number alone.

- Smiles: "COc1cc(C(=O)N2CCC(N3CCN(C)CC3)CC2)ccc1Nc1ncc2c(n1)N(C)c1ccccc1C(=O)N2C"
  Observed Value: 100

**Query** STK10 (human) (UniProt O94804) / kinase still bound, per cent of control / "CS(=O)(=O)N1CCN(Cc2cc3nc(-c4cccc5[nH]ncc45)nc(N4CCOCC4)c3s2)CC1" : value?
**Result** 100

**Query** Form entry - test system: STK10 (human) (UniProt O94804); read-out: kinase still bound, per cent of control; compound: "NC(=O)Nc1cc(-c2cccc(F)c2)sc1C(=O)N[C@@H]1CCCNC1"
**Result** 0

**Query** What measured kinase still bound, per cent of control is associated with "COc1cc2ncn(-c3cc(OCc4ccccc4C(F)(F)F)c(C(N)=O)s3)c2cc1OC" on STK10 (human) (UniProt O94804)?
**Result** 0

**Query** Reported kinase still bound, per cent of control for STK10 (human) (UniProt O94804), given "N#CCNC(=O)c1ccc(-c2ccnc(Nc3ccc(N4CCOCC4)cc3)n2)cc1" ?
**Result** 100

**Query** Please provide the recorded kinase still bound, per cent of control for "CNC(=O)c1ccc(Nc2cc(Nc3ccccc3S(=O)(=O)C(C)C)c3cc[nH]c3n2)nc1" , tested on STK10 (human) (UniProt O94804).
**Result** 0

**Query** Give the reported kinase still bound, per cent of control for "C=CC(=O)Nc1ccc(CN(C(=O)Nc2c(Cl)c(OC)cc(OC)c2Cl)c2cc(Nc3ccc(N4CCN(C)CC4)cc3)ncn2)cc1" (system: STK10 (human) (UniProt O94804)).
**Result** 0.1

**Query** Form entry - test system: STK10 (human) (UniProt O94804); read-out: kinase still bound, per cent of control; compound: "CCN(CC)CCCCNc1ncc2cc(-c3cc(OC)cc(OC)c3)c(NC(=O)NC(C)(C)C)nc2n1"
**Result** 100

**Query** Please tell me: kinase still bound, per cent of control of "C[C@@H](Oc1cc(-c2cnn(C3CCNCC3)c2)cnc1N)c1c(Cl)ccc(F)c1Cl" , system STK10 (human) (UniProt O94804)?
**Result** 0

---

Tested On: UniProt O15530
Sequence (O15530 whole entry, looked up): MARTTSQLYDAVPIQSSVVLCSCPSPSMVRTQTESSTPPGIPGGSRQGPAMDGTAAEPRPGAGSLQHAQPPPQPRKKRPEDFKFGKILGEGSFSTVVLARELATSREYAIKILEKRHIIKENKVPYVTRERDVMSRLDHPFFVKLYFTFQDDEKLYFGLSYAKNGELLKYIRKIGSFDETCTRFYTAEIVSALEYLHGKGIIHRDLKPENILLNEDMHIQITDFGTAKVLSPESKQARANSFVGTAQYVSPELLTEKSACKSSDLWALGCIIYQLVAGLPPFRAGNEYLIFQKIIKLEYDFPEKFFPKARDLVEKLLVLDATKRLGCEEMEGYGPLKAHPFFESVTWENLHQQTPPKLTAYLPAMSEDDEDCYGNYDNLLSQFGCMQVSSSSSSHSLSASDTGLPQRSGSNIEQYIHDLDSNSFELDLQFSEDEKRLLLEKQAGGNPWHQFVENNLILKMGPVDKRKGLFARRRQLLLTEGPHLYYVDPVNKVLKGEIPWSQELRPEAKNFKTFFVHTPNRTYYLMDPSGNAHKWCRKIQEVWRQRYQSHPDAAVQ
Experiment Summary: KINOMEscan competition binding
Stated Conditions: compound 10.0 µM
Reported kinase still bound, per cent of control values follow for various compounds
Please answer in the form of a number followed by its unit of measurement.

Look over these answered cases.
- Smiles: "C=CC(=O)Nc1ccc(CN(C(=O)Nc2c(Cl)c(OC)cc(OC)c2Cl)c2cc(Nc3ccc(N4CCN(C)CC4)cc3)ncn2)cc1"
  Observed Value: "100%"
- Smiles: "COc1cc2ncnc(-n3nc(-c4ccccn4)nc3N)c2cc1OC"
  Observed Value: "90%"

**Query** Can you look up the measured kinase still bound, per cent of control of "Cc1n[nH]c2ccc(-c3cncc(OC[C@@H](N)Cc4c[nH]c5ccccc45)c3)cc12" for me?
**Result** 100%

**Query** Item "COc1cc2ncn(-c3cc(OCc4ccccc4C(F)(F)F)c(C(N)=O)s3)c2cc1OC" has what recorded kinase still bound, per cent of control?
**Result** 66%

---

Tested On: PKN3 (M.tuberculosis)
Experiment Summary: KINOMEscan competition binding
Stated Conditions: compound 10.0 µM
Measured Endpoint: kinase still bound, per cent of control (%)
The reply should be a number in %, with the unit left off.

Some solved cases for reference:
- Smiles: "C=CC(=O)Nc1cc(-n2c(=O)ccc3cnc4ccc(-c5cn[nH]c5)cc4c32)ccc1C"
  Measured Endpoint: "kinase still bound, per cent of control"
  Observed Value: 12
- Smiles: "N#CCNC(=O)c1ccc(-c2ccnc(Nc3ccc(N4CCOCC4)cc3)n2)cc1"
  Measured Endpoint: "kinase still bound, per cent of control"
  Observed Value: 8.7
- Smiles: "COc1cc(C(=O)N2CCC(N3CCN(C)CC3)CC2)ccc1Nc1ncc2c(n1)N(C)c1ccccc1C(=O)N2C"
  Measured Endpoint: "kinase still bound, per cent of control"
  Observed Value: 100

**Query** Fill in: kinase still bound, per cent of control of "CN(C)C/C=C/C(=O)Nc1ccc(C(=O)Nc2cccc(Nc3nccc(-c4cccnc4)n3)c2)cc1" is ___
**Result** 84

**Query** Return reported kinase still bound, per cent of control; argument: "C[C@@H](Oc1cc(-c2cnn(C3CCNCC3)c2)cnc1N)c1c(Cl)ccc(F)c1Cl"
**Result** 30

**Query** Quick one: kinase still bound, per cent of control of "NC(=O)Nc1cc(-c2cccc(F)c2)sc1C(=O)N[C@@H]1CCCNC1" ?
**Result** 0

**Query** Entry "O=c1cc(N2CCOCC2)oc2c(-c3cccc4c3sc3ccccc34)cccc12" : reported kinase still bound, per cent of control = ?
**Result** 6.6

**Query** Need kinase still bound, per cent of control, item "COc1cc2ncn(-c3cc(OCc4ccccc4C(F)(F)F)c(C(N)=O)s3)c2cc1OC"
**Result** 76

**Query** Which kinase still bound, per cent of control value is on record for "COc1cc2ncnc(-n3nc(-c4ccccn4)nc3N)c2cc1OC" ?
**Result** 7.1

**Query** Find the recorded kinase still bound, per cent of control belonging to "O=C1NC(=O)/C(=C/c2ccc3nccc(-c4ccncc4)c3c2)S1" and report it.
**Result** 36

**Query** For the compound "CNC(=O)c1cc(Oc2ccc(NC(=O)Nc3ccc(Cl)c(C(F)(F)F)c3)cc2)ccn1" , what kinase still bound, per cent of control is on record?
**Result** 100

**Query** Param item = "COCC(=O)NC/C=C/c1ccc2ncnc(Nc3ccc(Oc4ccc(C)nc4)c(C)c3)c2c1" ; retrieve measured kinase still bound, per cent of control.
**Result** 23

**Query** Which value of kinase still bound, per cent of control has been reported for "O=C(Nc1cccc(Nc2ncc(Br)c(NCCc3cnc[nH]3)n2)c1)N1CCCC1" in the records?
**Result** 6.6

**Query** What measured kinase still bound, per cent of control goes with "CCN1CCN(C(=O)Cc2ccc(Nc3ncc(F)c(Nc4ccc(C(=O)Nc5ccccc5Cl)cc4)n3)cc2)CC1" ?
**Result** 5

**Query** Given the compound "COc1ccc(N(C(=O)Oc2c(C)cccc2C)c2ccnc(Nc3ccc(N4CCN(C)CC4)cc3)n2)c(OC)c1" , what is its reported kinase still bound, per cent of control?
**Result** 90

Values from the kinase profiling compilation of Christmann-Franck et al. (2016)
